Source listed as ChEMBL document CHEMBL1156573.

- target_system: UniProt:P21554
- Sequence (P21554 whole entry): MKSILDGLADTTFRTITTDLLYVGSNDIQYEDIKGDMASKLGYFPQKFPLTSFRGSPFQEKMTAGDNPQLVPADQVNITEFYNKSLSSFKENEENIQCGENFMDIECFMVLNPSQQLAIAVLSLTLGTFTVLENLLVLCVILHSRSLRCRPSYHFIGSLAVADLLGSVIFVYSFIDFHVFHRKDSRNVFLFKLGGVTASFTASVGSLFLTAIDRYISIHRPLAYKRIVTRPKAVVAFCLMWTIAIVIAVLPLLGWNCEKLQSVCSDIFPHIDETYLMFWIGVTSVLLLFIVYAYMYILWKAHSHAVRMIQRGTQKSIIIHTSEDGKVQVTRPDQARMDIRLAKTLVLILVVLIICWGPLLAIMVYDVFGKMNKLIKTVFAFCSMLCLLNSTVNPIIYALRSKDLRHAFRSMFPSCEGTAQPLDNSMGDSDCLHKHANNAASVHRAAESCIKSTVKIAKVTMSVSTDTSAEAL
- assay_info: Displacement of [3H]CP-55940 from human CB1 receptor expressed in CHO cells at 10 uM by liquid scintillation counting
- Format: cell-based
Provide the reported Activity of each item.
Supply the numeric figure in %, leaving out any unit text.

Give the measured Activity of O=C(Cc1ccccc1)N/N=C1\C(=O)N(CCC2CCCCC2)c2ccccc21 . 88.8

Try this compound too: CCCCCCN1C(=O)/C(=N\NC(=O)c2ccccc2)c2ccccc21 95.5

###

- target_system: Cannabinoid receptor 2 (Homo sapiens, UniProt P34972)
- Sequence (P34972 whole entry): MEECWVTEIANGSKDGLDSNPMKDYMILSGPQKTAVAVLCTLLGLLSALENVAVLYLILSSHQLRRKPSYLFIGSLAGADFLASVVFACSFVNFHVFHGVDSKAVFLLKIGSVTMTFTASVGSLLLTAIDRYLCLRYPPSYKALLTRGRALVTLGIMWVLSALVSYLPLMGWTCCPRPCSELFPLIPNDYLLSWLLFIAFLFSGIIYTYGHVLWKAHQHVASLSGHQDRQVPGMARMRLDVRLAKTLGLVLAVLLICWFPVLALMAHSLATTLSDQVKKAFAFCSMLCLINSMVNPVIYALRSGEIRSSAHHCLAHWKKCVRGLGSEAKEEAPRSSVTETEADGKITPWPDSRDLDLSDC
- assay_info: Agonist activity at human CB2 receptor expressed in CHO cells by [35S]GTPgammaS assay
quantity_name: pEC50
Keep in mind that pEC50 stands for -log10 of concentration in molar terms.

Give the measured pEC50 of O=C(N/N=C1\C(=O)N(Cc2ccccc2)c2ccccc21)c1ccccc1 . 7.20
